Reference for the values: paper PMC12655426

Target: OAT3 (Homo sapiens, UniProt Q8TCC7)
Sequence (Q8TCC7 whole entry): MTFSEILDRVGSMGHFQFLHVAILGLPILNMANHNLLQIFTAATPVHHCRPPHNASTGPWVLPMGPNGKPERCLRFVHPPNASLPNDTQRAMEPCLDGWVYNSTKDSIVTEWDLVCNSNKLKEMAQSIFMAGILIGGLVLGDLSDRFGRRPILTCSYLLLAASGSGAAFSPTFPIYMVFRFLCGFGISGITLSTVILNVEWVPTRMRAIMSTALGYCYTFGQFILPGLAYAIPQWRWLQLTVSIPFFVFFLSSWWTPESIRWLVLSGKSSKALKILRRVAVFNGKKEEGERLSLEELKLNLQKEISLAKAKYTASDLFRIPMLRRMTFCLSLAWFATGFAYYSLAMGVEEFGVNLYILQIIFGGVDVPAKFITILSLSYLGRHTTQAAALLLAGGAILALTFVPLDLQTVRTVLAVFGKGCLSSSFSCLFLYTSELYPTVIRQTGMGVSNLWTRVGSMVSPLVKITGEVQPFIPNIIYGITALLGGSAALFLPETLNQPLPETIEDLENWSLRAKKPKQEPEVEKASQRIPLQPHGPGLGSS
Experiment: OTA uptake in OAT3-overexpressing HEK293 cells (screen and kinetics)
Details: human, pH 7.4
Experimental Endpoint: Km at 5 min (µM)
// return numeric value only (unit: µM, not printed)

Q) Dear colleague, I am looking for the recorded Km at 5 min of the following compound: C[C@@H]1Cc2c(Cl)cc(C(=O)N[C@@H](Cc3ccccc3)C(=O)O)c(O)c2C(=O)O1 [OTA, Ochratoxin A]
A) 2.58

###

Molecular target: human OAT1 (Homo sapiens)
Construct: host or cells: HEK293, stably transfected
Sequence (Q4U2R8 whole entry): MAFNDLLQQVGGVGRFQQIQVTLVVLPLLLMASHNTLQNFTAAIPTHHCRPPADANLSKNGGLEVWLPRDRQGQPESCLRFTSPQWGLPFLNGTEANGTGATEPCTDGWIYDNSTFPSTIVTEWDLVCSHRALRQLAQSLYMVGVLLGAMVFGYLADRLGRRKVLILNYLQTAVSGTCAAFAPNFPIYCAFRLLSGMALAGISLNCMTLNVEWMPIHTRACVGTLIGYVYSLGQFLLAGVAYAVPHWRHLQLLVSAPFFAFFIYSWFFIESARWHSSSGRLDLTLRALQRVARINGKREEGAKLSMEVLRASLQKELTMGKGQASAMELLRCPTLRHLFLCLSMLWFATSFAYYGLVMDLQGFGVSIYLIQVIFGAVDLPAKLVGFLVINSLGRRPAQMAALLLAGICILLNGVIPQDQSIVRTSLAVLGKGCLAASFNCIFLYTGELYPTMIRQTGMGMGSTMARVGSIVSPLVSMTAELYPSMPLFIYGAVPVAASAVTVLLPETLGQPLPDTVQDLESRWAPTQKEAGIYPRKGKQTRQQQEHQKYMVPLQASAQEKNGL
Assay: Polyphenol inhibition of OAT1-mediated OTA uptake in HEK293 cells
Format: cell-based
Conditions: polyphenol 10 μM, 300 nM OTA, 5 min
Experimental Endpoint: OTA uptake, fraction of vehicle control

1. O=c1cc(-c2ccc(O)c(O)c2)oc2cc(O)cc(O)c12; 0.28 fold of vehicle control

Please turn your attention to the following entry.
Q) Dear colleague, I am looking for the recorded OTA uptake, fraction of vehicle control of the following molecule: `O=c1c(O)c(-c2cc(O)c(O)c(O)c2)oc2cc(O)cc(O)c12`
A) 0.73 fold of vehicle control

###

Molecular target: UniProt:P46721
Experiment: OTA uptake in OATP1A2-overexpressing HEK293 cells (screen and kinetics)
Settings: human, pH 6.5
Experimental Endpoint: Km at 5 min (µM)
// return numeric value only (unit: µM, not printed)

Q) Dear colleague, I am looking for the recorded Km at 5 min of the following molecule: `C[C@@H]1Cc2c(Cl)cc(C(=O)N[C@@H](Cc3ccccc3)C(=O)O)c(O)c2C(=O)O1`
A) 37.3

###

Molecular target: UniProt:Q8TCC7
Assay: Polyphenol inhibition of OAT3-mediated OTA uptake in HEK293 cells
Assay type: cell-based
Set-up: host or cells: HEK293, stably transfected
Settings: polyphenol 10 μM, 300 nM OTA, 5 min
Experimental Endpoint: OTA uptake, fraction of vehicle control

1. O=c1c(O)c(-c2cc(O)c(O)c(O)c2)oc2cc(O)cc(O)c12 [myricetin]; 0.74 fold of vehicle control

Please turn your attention to the following entry.
Q) Dear colleague, I am looking for the recorded OTA uptake, fraction of vehicle control of the following compound: O=c1cc(-c2ccc(O)c(O)c2)oc2cc(O)cc(O)c12 [luteolin]
A) 0.36 fold of vehicle control

###

The entries below come with measured IC50 values attached.
Target: human BCRP (Homo sapiens, UniProt Q9UNQ0)
Sequence (Q9UNQ0 1-655): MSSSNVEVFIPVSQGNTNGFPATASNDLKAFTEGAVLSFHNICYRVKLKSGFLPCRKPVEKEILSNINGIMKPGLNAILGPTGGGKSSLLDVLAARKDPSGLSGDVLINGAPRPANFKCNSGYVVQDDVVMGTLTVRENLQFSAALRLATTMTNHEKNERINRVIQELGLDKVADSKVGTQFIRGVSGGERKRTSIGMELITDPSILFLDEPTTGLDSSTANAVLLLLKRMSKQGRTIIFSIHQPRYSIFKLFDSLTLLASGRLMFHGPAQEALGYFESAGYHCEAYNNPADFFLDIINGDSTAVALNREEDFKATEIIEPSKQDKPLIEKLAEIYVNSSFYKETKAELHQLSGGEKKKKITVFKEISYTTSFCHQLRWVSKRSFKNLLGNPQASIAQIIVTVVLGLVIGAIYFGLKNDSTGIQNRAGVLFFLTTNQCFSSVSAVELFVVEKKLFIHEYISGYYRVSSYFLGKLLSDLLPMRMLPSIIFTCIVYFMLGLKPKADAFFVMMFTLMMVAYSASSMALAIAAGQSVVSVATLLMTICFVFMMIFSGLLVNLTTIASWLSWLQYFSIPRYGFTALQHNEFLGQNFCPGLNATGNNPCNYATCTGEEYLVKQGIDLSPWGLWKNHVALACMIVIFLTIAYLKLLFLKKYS
Assay: Polyphenol modulation of BCRP-mediated OTA efflux in MDCK-II cells
Assay type: cell-based
Design: host or cells: MDCK-II, transient plasmid transfection
// return numeric value only (unit: µM, not printed)

1) O=c1cc(-c2ccc(O)c(O)c2)oc2cc(O)cc(O)c12; 22

Please turn your attention to the following entry.
Q) Dear colleague, I am looking for the recorded IC50 of the following molecule: `O=c1c(O)c(-c2cc(O)c(O)c(O)c2)oc2cc(O)cc(O)c12`
A) 425

###

Target: human BCRP (Homo sapiens)
Sequence (Q9UNQ0 1-655): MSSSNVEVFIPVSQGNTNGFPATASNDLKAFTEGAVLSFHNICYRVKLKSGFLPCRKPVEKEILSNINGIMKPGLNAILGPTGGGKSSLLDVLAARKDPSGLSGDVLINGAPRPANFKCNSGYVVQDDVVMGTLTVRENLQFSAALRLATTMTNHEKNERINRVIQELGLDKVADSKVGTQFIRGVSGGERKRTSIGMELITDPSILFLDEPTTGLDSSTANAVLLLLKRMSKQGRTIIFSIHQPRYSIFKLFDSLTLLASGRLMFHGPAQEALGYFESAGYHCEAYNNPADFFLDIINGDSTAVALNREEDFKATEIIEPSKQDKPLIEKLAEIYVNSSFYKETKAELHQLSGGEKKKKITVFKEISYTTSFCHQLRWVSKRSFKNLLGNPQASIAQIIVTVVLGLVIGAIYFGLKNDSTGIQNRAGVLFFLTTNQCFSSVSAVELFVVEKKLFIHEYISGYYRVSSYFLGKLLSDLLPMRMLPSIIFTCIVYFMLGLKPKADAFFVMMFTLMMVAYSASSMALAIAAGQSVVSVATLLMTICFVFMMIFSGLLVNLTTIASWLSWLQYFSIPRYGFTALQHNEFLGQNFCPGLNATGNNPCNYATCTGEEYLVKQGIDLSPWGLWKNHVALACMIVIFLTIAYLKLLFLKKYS
Assay: Polyphenol modulation of BCRP-mediated OTA efflux in MDCK-II cells
Assay type: cell-based
Design: host or cells: MDCK-II, transient plasmid transfection
Details: read-out: IC50, inhibition of BCRP-mediated OTA transport; 300 nM OTA, efflux ratio as % of vehicle control
Experimental Endpoint: pIC50
// returns pIC50 (minus log10 of molar concentration), number only

Q) Dear colleague, I am looking for the recorded pIC50 of the following compound: O=C(O[C@@H]1Cc2c(O)cc(O)cc2O[C@@H]1c1ccc(O)c(O)c1)c1cc(O)c(O)c(O)c1 [ECG, (-)-Epicatechin-3-O-gallate]
A) 3.31

###

The entries below come with measured OTA uptake, fraction of vehicle control values attached.
Target: OAT4 (Homo sapiens, UniProt Q9NSA0)
Sequence (Q9NSA0 whole entry): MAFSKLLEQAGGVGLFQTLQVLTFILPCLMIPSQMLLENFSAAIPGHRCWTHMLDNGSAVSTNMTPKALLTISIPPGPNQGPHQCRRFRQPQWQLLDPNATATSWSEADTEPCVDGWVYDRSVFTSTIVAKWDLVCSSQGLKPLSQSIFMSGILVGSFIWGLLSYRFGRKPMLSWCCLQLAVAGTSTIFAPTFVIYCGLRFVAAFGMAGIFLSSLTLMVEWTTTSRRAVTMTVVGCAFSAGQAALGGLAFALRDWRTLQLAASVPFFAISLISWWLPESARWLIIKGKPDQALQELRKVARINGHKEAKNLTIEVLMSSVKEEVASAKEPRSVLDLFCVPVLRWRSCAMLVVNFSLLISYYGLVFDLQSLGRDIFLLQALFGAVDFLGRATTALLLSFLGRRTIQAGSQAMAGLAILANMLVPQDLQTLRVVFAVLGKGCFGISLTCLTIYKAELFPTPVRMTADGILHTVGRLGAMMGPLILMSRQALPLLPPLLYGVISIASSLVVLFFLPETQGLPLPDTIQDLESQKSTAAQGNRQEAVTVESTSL
Experiment: Polyphenol inhibition of OAT4-mediated OTA uptake in HEK293 cells
Format: cell-based
Set-up: host or cells: HEK293, stably transfected
Details: polyphenol 10 μM, 300 nM OTA, 5 min

1. O=c1cc(-c2ccc(O)c(O)c2)oc2cc(O)cc(O)c12; 0.7 fold of vehicle control

Q) Dear colleague, I am looking for the recorded OTA uptake, fraction of vehicle control of the following compound: `O=c1c(O)c(-c2cc(O)c(O)c(O)c2)oc2cc(O)cc(O)c12`
A) 0.82 fold of vehicle control

###

Molecular target: OATP1A2 (Homo sapiens, UniProt P46721)
Sequence (P46721 whole entry): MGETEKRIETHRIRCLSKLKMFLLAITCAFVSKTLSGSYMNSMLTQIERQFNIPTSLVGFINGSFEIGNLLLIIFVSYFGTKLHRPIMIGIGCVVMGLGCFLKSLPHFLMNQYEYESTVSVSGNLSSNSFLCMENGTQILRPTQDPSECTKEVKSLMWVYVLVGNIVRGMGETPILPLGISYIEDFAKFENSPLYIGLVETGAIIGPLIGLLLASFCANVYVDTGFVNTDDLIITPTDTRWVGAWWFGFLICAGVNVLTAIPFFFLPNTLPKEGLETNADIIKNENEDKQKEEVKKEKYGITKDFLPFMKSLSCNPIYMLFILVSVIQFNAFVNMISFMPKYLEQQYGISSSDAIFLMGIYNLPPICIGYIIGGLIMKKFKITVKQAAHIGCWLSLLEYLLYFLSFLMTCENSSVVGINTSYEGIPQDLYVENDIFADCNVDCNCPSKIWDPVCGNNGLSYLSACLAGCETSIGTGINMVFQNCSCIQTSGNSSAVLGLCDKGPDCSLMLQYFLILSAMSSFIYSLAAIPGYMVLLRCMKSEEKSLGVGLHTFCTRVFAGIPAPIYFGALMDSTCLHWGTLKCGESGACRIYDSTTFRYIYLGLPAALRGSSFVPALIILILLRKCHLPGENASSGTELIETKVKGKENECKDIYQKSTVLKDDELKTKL
Assay: OTA uptake in OATP1A2-overexpressing HEK293 cells (screen and kinetics)
Conditions: human, other cell line, pH 6.5
Experimental Endpoint: microsomal CLint (µL/min/mg)
// return numeric value only (unit: µL/min/mg, not printed)

Q) Dear colleague, I am looking for the recorded microsomal CLint of the following molecule: C[C@@H]1Cc2c(Cl)cc(C(=O)N[C@@H](Cc3ccccc3)C(=O)O)c(O)c2C(=O)O1 [OTA, Ochratoxin A]
A) 21.6
